- METHOD: Cmax in mouse at 150 mg/kg, po
- Format: ADME, organism-based
- Design: dose 150 mg/kg, route oral
- COND: in vivo
OBSERVED_PROPERTY: Cmax (ng/mL)
Number in ng/mL, nothing else.

COMPOUND	OBSERVED_PROPERTY	VALUE_REPORTED
C=C1C(=O)O[C@H]2[C@H]1CCC(C)=C1CC[C@@](C)(O)[C@@H]12 [MICHELIOLIDE]	Cmax	2610

Alright, here's another compound for you.
## Task For the compound shown here, CC1=C2CC[C@@](C)(O)[C@@H]2[C@H]2OC(=O)[C@@H](CN(C)C)[C@@H]2CC1.Cl [DIMETHYLAMINOMICHELIOLIDE HYDROCHLORIDE] , give the reported Cmax.
## Result 19000

* * *

- METHOD: Mean retention time (0 to infinity) in mouse at 100 mg/kg, iv
- Format: ADME, organism-based
- Design: dose 100 mg/kg, route intravenous
- COND: in vivo
OBSERVED_PROPERTY: MRT inf (h)
Number in h, nothing else.

## Task For the molecule shown here, CC1=C2CC[C@@](C)(O)[C@@H]2[C@H]2OC(=O)[C@@H](CN(C)C)[C@@H]2CC1.Cl [DIMETHYLAMINOMICHELIOLIDE HYDROCHLORIDE] , give the reported MRT inf.
## Result 3.52

## Task For the molecule shown here, C=C1C(=O)O[C@H]2[C@H]1CCC(C)=C1CC[C@@](C)(O)[C@@H]12 [MICHELIOLIDE] , give the reported MRT inf.
## Result 6.34

* * *

- METHOD: Volume of distribution in mouse at 100 mg/kg, iv
- Type: ADME, organism-based
- Design: dose 100 mg/kg, route intravenous
- COND: in vivo
Recorded measurements of Vd, one per entry
Number in L/kg, nothing else.

COMPOUND	OUTPUT_UNIT	VALUE_REPORTED
C=C1C(=O)O[C@H]2[C@H]1CCC(C)=C1CC[C@@](C)(O)[C@@H]12 [MICHELIOLIDE]	L/kg	533

## Task For the compound shown here, CC1=C2CC[C@@](C)(O)[C@@H]2[C@H]2OC(=O)[C@@H](CN(C)C)[C@@H]2CC1.Cl [DIMETHYLAMINOMICHELIOLIDE HYDROCHLORIDE] , give the reported Vd.
## Result 88.2

* * *

- METHOD: Toxicity in po dosed BALB/c mouse administered every day for 7 days
- COND: in vivo
OBSERVED_PROPERTY: MTD at 168 h (mg/kg)
Number in mg/kg, nothing else.

## Task For the molecule shown here, CC1=C2CC[C@@](C)(O)[C@@H]2[C@H]2OC(=O)[C@@H](CN(C)C)[C@@H]2CC1.Cl [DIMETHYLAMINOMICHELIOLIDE HYDROCHLORIDE] , give the reported MTD at 168 h.
## Result 500

* * *

- METHOD: Cytotoxicity against human leukemia stem/progenitor cells assessed as viable CD34+ cells at 5 uM after 18 hrs by annexin-V labeling-based flow cytometry
- Assay type: functional, CD34+ cell
Values of Activity strictly less than 30% map to true, and values of at least 30% map to false.

MOLECULE	CAT
C/C1=C\CC[C@@]2(C)O[C@@H]2[C@H]2OC(=O)[C@@H](CN=[N+]=[N-])[C@@H]2CC1	true
C=C1C(=O)O[C@@H]2[C@@H]3[C@@H](CC[C@@]3(C)O)[C@](C)(OC)CC[C@@H]12	false
C=C1C(=O)O[C@@H]2[C@@H]3[C@@H](CC[C@@]3(C)O)[C@](C)(O)CC[C@@H]12	false
C=C1C(=O)O[C@H]2[C@H]1CCC(C)=C1CC[C@@](C)(OC)[C@@H]12	true

## Task Hello, is Activity of the following molecule strictly smaller than 30%? C=C1CC[C@H]2C(=C)CC[C@H]3C(=C)C(=O)O[C@@H]3[C@@H]12 [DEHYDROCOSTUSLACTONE]
## Result true

## Task Hello, is Activity of the following molecule strictly smaller than 30%? C=C1CC[C@H]2C(=C)C(=O)O[C@@H]2[C@]2(O)[C@@H]1CC[C@@H]2C
## Result false

* * *

- METHOD: AUC (0 to t) in mouse at 150 mg/kg, po
- Format: ADME, organism-based
- Set-up: dose 150 mg/kg, route oral
- COND: plasma
Recorded measurements of AUC(0-t), one per entry
Number in ng·h/mL, nothing else.

MOLECULE	OUTPUT_UNIT	AUC(0-t)
CC1=C2CC[C@@](C)(O)[C@@H]2[C@H]2OC(=O)[C@@H](CN(C)C)[C@@H]2CC1.Cl [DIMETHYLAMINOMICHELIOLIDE HYDROCHLORIDE]	ng·h/mL	49600

Alright, here's another molecule for you.
## Task For the molecule shown here, C=C1C(=O)O[C@H]2[C@H]1CCC(C)=C1CC[C@@](C)(O)[C@@H]12 [MICHELIOLIDE] , give the reported AUC(0-t).
## Result 6630

* * *

- METHOD: Half life in mouse at 100 mg/kg, iv
- Assay type: ADME, organism-based
- Parameters: dose 100 mg/kg, route intravenous
- COND: in vivo
OBSERVED_PROPERTY: half-life (min)
Number in min, nothing else.

COMPOUND	half-life / min
C=C1C(=O)O[C@H]2[C@H]1CCC(C)=C1CC[C@@](C)(O)[C@@H]12 [MICHELIOLIDE]	760

## Task For the compound shown here, CC1=C2CC[C@@](C)(O)[C@@H]2[C@H]2OC(=O)[C@@H](CN(C)C)[C@@H]2CC1.Cl [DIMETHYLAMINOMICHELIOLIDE HYDROCHLORIDE] , give the reported half-life.
## Result 1140

* * *

Recorded measurements of CL/F, one per entry
- METHOD: Total clearance in mouse at 150 mg/kg, po
- Assay type: ADME, organism-based
- Parameters: dose 150 mg/kg, route oral
- COND: in vivo
Write the numeric value and follow it with the unit.

COMPOUND	CL/F
CC1=C2CC[C@@](C)(O)[C@@H]2[C@H]2OC(=O)[C@@H](CN(C)C)[C@@H]2CC1.Cl [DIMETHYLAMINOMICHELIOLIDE HYDROCHLORIDE]	51.3 mL/min/kg

Alright, here's another compound for you.
## Task For the compound shown here, C=C1C(=O)O[C@H]2[C@H]1CCC(C)=C1CC[C@@](C)(O)[C@@H]12 [MICHELIOLIDE] , give the reported CL/F.
## Result 376 mL/min/kg

* * *

Recorded measurements of clearance, one per entry
- METHOD: Total clearance in mouse at 100 mg/kg, iv
- Assay type: ADME, organism-based
- Design: dose 100 mg/kg, route intravenous
- COND: in vivo
Number in L/h/kg, nothing else.

MOLECULE	clearance, L/h/kg
CC1=C2CC[C@@](C)(O)[C@@H]2[C@H]2OC(=O)[C@@H](CN(C)C)[C@@H]2CC1.Cl [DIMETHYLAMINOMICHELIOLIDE HYDROCHLORIDE]	2.26

Alright, here's another molecule for you.
## Task For the molecule shown here, C=C1C(=O)O[C@H]2[C@H]1CCC(C)=C1CC[C@@](C)(O)[C@@H]12 [MICHELIOLIDE] , give the reported clearance.
## Result 17.2

* * *

- METHOD: Mean retention time (0 to infinity) in mouse at 150 mg/kg, po
- Assay type: ADME, organism-based
- Design: dose 150 mg/kg, route oral
- COND: in vivo
Recorded measurements of MRT inf, one per entry
Write the numeric value and follow it with the unit.

MOLECULE	VALUE_REPORTED
C=C1C(=O)O[C@H]2[C@H]1CCC(C)=C1CC[C@@](C)(O)[C@@H]12 [MICHELIOLIDE]	8.28 h

## Task For the molecule shown here, CC1=C2CC[C@@](C)(O)[C@@H]2[C@H]2OC(=O)[C@@H](CN(C)C)[C@@H]2CC1.Cl [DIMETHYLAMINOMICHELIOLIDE HYDROCHLORIDE] , give the reported MRT inf.
## Result 9.85 h

* * *

- METHOD: Cytotoxicity against human leukemia stem/progenitor cells assessed as viable CD34+ cells at 5 uM after 18 hrs by annexin-V labeling-based flow cytometry
- Type: functional, CD34+ cell
Assign Satisfied whenever Activity does not fall below 70%; assign Not satisfied whenever it does.

Answered cases to consult:
COMPOUND	CAT
CC1=C2CC[C@@](C)(O)[C@@H]2[C@H]2OC(=O)[C@@H](CN=[N+]=[N-])[C@@H]2CC1	Not satisfied
C=C1C(=O)O[C@@H]2C3O[C@]3(C)CC/C=C(\C)CC[C@@H]12 (stereo partly drawn)	Not satisfied
CC1=C2CC[C@@](C)(O)[C@@H]2[C@H]2OC(=O)[C@@H](C)[C@@H]2CC1	Satisfied
C=C1C(=O)O[C@@H]2/C=C(\C)CC/C=C(\C)CC[C@@H]12 [COSTUNOLIDE]	Not satisfied
C=C1C(=O)O[C@H]2[C@H]1CCC(C)=C1CC[C@@](C)(O)[C@@H]12 [MICHELIOLIDE]	Not satisfied

## Task Has CC1=C2CC[C@@](C)(O)[C@@H]2[C@H]2OC(=O)[C@@H](CN(C)C)[C@@H]2CC1.Cl [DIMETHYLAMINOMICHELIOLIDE HYDROCHLORIDE] a recorded Activity greater than or equal to 70%?
## Result Satisfied

## Task Has C=C1C(=O)O[C@@H]2C=C(CCC(C)=O)[C@@H](C)CC[C@@H]12 a recorded Activity greater than or equal to 70%?
## Result Satisfied

## Task Has C=C1C(=O)O[C@@H]2[C@@H]3[C@@H](CC[C@@]3(C)O)C(=C)CC[C@@H]12 a recorded Activity greater than or equal to 70%?
## Result Not satisfied
